Measured values drawn from the supplement of paper PMC10126150 for this set.

Collected switch fluorescence ratio values appear next to each entry.
Test system: ATP;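 also: ATP exposure 15 min at 22 °C before imaging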
PROTOCOL DESCRIPTION: switch fluorescence ratio, 500 uM ATP over buffer (Cy3 cluster intensity, sum of 5 cycles each) (fold (ratio)); higher = stronger signal-on switching upon ATP binding; sequences stand for … in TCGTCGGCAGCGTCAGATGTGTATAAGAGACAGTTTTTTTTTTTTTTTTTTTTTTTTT…TC
CONDITIONS: aptamer strand: ATP DNA aptamer (quencher-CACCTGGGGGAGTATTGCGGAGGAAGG + anchor), 100 nM annealed; ATP concentration: 500 uM

SEQUENCE TEXT: CGTTATTTCT
switch fluorescence ratio: 1.01

SEQUENCE TEXT: GGCTTAGGTG
switch fluorescence ratio: 1.26

SEQUENCE TEXT: GGGGTTGACA
switch fluorescence ratio: 1.04

SEQUENCE TEXT: TTTATGGTTG
switch fluorescence ratio: 1.02

SEQUENCE TEXT: CGCCGGACAT
switch fluorescence ratio: 1.04

SEQUENCE TEXT: TCTAGCCCTG
switch fluorescence ratio: 1.06

SEQUENCE TEXT: GATGGTATGG
switch fluorescence ratio: 1.01

SEQUENCE TEXT: AACGTTGCTT
switch fluorescence ratio: 1.01

SEQUENCE TEXT: TAAGATCTTA
switch fluorescence ratio: 0.997

SEQUENCE TEXT: GAGAAGGGAG
switch fluorescence ratio: 0.99

SEQUENCE TEXT: CAGACGGATT
switch fluorescence ratio: 0.996

SEQUENCE TEXT: TTTCTCGGCT
switch fluorescence ratio: 1

SEQUENCE TEXT: CCAGTTGGCA
switch fluorescence ratio: 1
